molecular target: Amine oxidase [flavin-containing] B (Homo sapiens, UniProt P27338); test: Irreversible inhibition of human recombinant MAO-B
readout_name: Ki (µM)
Reply with just the number (in µM).

Enter measured Ki, system Amine oxidase [flavin-containing] B (Homo sapiens, UniProt P27338), for the compound shown: `C#CCN(C)Cc1ccc(C(=O)NC2CC(C)(C)N([O])C(C)(C)C2)cc1` 15

====

Target: Amine oxidase [flavin-containing] B (Homo sapiens, UniProt P27338)
Sequence (P27338 whole entry): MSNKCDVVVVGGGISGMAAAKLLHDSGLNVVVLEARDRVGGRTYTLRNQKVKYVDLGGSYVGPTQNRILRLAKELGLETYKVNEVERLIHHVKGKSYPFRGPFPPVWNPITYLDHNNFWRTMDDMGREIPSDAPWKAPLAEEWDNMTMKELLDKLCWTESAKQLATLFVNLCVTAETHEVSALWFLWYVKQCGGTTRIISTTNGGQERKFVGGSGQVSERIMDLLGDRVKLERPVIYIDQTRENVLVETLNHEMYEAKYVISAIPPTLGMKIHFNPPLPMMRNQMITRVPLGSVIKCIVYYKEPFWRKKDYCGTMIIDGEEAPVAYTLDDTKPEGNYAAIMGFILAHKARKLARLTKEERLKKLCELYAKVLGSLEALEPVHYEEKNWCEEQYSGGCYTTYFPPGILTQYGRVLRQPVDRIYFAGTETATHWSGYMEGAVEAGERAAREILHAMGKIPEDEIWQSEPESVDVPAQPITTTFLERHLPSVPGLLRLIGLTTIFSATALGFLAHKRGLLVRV
Test: Inhibition of human MAO-B
readout_name: pIC50
The value called pIC50 is obtained by taking minus log10 of the concentration in mol/L.

Fill in reported pIC50 for this entry: `N#CCCn1nnc(-c2ccc(OCc3ccccc3)cc2)n1` 5.10

Fill in reported pIC50 for this entry: `OCCn1nnc(-c2ccc(OCc3cccc(Cl)c3)cc2)n1` 8.70

Fill in reported pIC50 for this entry: `OCCn1nnc(-c2ccc(OCc3ccccc3)cc2)n1` 8.70

Fill in reported pIC50 for this entry: `N#CCCn1nnc(-c2ccc(OCc3cccc(Cl)c3)cc2)n1` 5.10

Fill in reported pIC50 for this entry: Oc1ccc(/C=C/c2cc(O)cc3c2[C@@H](c2cc(O)cc(O)c2)C(c2ccc(O)cc2)O3)cc1 (stereo not given in full) 5.30
